// reported pEC50 for each item listed
# STUDY_TARGET: T1, full-length beta-Catenin (Uniprot ID P35222) (Homo sapiens (Human), UniProt P35222 2-781)
# T1 construct: The AlphaScreen assay used a Histidine (Nickel Chelate) detection kit, so a His tag is likely, but no tag is described; also called B-Catenin; bCat
# T1 sequence: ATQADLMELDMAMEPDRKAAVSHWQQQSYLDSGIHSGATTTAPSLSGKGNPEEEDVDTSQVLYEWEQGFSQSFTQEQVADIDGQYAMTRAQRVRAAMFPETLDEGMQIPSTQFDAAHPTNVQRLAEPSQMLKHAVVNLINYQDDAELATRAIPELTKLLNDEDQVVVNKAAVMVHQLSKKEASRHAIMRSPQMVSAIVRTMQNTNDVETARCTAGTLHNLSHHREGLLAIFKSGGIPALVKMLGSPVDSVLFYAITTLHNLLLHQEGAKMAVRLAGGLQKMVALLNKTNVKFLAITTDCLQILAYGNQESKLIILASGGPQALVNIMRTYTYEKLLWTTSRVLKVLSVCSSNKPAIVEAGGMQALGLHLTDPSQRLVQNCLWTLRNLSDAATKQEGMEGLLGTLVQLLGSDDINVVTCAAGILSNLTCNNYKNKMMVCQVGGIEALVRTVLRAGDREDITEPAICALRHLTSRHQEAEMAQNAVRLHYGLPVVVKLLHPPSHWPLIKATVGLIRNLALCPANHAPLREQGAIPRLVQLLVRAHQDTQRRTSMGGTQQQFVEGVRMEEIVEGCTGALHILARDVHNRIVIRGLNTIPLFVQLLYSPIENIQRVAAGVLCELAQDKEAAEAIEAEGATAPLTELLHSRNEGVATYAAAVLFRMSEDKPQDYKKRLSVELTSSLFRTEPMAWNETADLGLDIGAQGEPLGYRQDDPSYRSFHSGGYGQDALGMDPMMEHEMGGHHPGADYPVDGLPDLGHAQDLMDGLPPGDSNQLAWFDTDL
# TEST: AlphaScreen competition: full-length beta-catenin + biotin-TCF4(10-53) probe, peptide titrated
Starred links: 1 amine or outer side, 2 acyl side, 3 side chain; linkers in the order of their positions; H or OH if unused. Positions of bridges follow the written chain, without caps; N, C: chain ends. Non-standard residues stand in square brackets, D forms with d. Primed or numbered codes have the meaning given here. B5(4) = 2,2-bis(4-pentenyl)glycine = 2-amino-2-(pent-4-en-1-yl)hept-6-enoic acid (stitching residue), C=CCCCC(CCCC=C)(N[*:1])C(=O)[*:2]; B5(5) = 2,2-bis(4-pentenyl)glycine, 2-amino-2-(pent-4-en-1-yl)hept-6-enoic acid (stitching residue), C=CCCCC(CCCC=C)(N[*:1])C(=O)[*:2]; B5(3) = 2,2-bis(4-pentenyl)glycine (stitching residue), C=CCCCC(CCCC=C)(N[*:1])C(=O)[*:2]; B5 = 2-amino-2-(pent-4-en-1-yl)hept-6-enoic acid, C=CCCCC(CCCC=C)(N[*:1])C(=O)[*:2]; Phe(3-CF3) = N[C@@H](Cc1cccc(C(F)(F)F)c1)C(=O)O; Phe(4-CF3) = N[C@@H](Cc1ccc(C(F)(F)F)cc1)C(=O)O; αAllylPro = C=CC[C@@]1(C(=O)O)CCCN1; S8 = C=CCCCCCC[C@](C)(N)C(=O)O
Value format note: pEC50 is -log10 of concentration (mol/L); just state the number.

Consider the worked cases shown below.
Ac-[αAllylPro]DA[B5(3)]DDAA[Phe(3-CF3)]V[S8]FWQ-NH2 (staple 1-4, 4-11, Stapled peptide composition; also called Ac-PL3-Asp-Ala-B5-Asp-Asp-Ala-Ala-3F3MeF-Val-S8-Phe-Trp-Gln-NH2) [I-238]	6.57
Ac-[αAllylPro]DA[B5]DDAAFV[S8][Phe(3-CF3)]WQ-NH2 (staple 1-4, 4-11, Stapled peptide composition; also called Ac-PL3-Asp-Ala-B5-Asp-Asp-Ala-Ala-Phe-Val-S8-3F3MeF-Trp-Gln-NH2) [I-251]	5.92
Ac-[αAllylPro]DA[B5(5)]DDAA[Phe(4-CF3)]V[S8]FWQ-NH2 (staple 1-4, 4-11; not fully specified; printed as Ac-PL3-Asp-Ala-B5-Asp-Asp-Ala-Ala-4F3MeF-Val-S8-Phe-Trp-Gln-NH2, Stapled peptide composition; also called Ac-PL3-Asp-Ala-B5-Asp-Asp-Ala-Ala-4F3MeF-Val-S8-Phe-Trp-Gln-NH2) [I-240]	5.46
Ac-[αAllylPro]DA[B5(4)]D[Phe(4-CF3)]AAFV[S8]FWQ-NH2 (staple 1-4, 4-11, Stapled peptide composition; also called Ac-PL3-Asp-Ala-B5-Asp-4F3MeF-Ala-Ala-Phe-Val-S8-Phe-Trp-Gln-NH2) [I-246]	5.40
Ac-[αAllylPro]DA[B5(4)]DEAAXV[S8]FWQ-NH2 (staple 1-4, 4-11; not fully specified (residue 9); printed as Ac-PL3-Asp-Ala-B5-Asp-Glu-Ala-Ala-MeTyr-Val-S8-Phe-Trp-Gln-NH2, Stapled peptide composition; also called Ac-PL3-Asp-Ala-B5-Asp-Glu-Ala-Ala-MeTyr-Val-S8-Phe-Trp-Gln-NH2) [I-218]	7.05

Noted for Ac-[αAllylPro]DA[B5(4)]DDAAFV[S8][Phe(4-CF3)]WQ-NH2 (staple 1-4, 4-11, Stapled peptide composition; also called Ac-PL3-Asp-Ala-B5-Asp-Asp-Ala-Ala-Phe-Val-S8-4F3MeF-Trp-Gln-NH2) [I-255] : its pEC50 reads 5.71

Record summary for Ac-[αAllylPro]DA[B5(3)]DDAA[Phe(3-CF3)]V[S8]FWQ-NH2 (staple 1-4, 4-11, Stapled peptide composition; also called Ac-PL3-Asp-Ala-B5-Asp-Asp-Ala-Ala-3F3MeF-Val-S8-Phe-Trp-Gln-NH2) [I-236] : reported pEC50 = 6.42

These measurements were taken from patent US20240116985A1.
